B1: Syntaxin-binding protein 4, residues 493 to 538; numbered along this chain, Q6ZWJ1 (parent)
chain: LDMDCLPYGWEEAYTADGIKYFINHVTQTTSWIHPVMSVLNLSRSE

- Variants of: B1
- assayComment: abundance fitness (aPCA) (normalised: wild type 0, dead -1); higher = more abundant; growth selection in yeast, the domain comes from the species named
- experimentalSetup: Homo sapiens
As shown below, each of these variants has a reported abundance fitness value.

Consider the following illustrative entries.
L40Y = -0.584
P7G = -0.719
D2C = -0.699
V39S = -0.079

Query :: What value of measured abundance fitness is listed for "M3E" ?
Result :: 0.144

Query :: What value of measured abundance fitness is listed for "P7T" ?
Result :: -0.483
